meta.source: the supplement of paper PMC13386468

Target Entity: UniProt Q8ILW6
Sequence (Q8ILW6 whole entry): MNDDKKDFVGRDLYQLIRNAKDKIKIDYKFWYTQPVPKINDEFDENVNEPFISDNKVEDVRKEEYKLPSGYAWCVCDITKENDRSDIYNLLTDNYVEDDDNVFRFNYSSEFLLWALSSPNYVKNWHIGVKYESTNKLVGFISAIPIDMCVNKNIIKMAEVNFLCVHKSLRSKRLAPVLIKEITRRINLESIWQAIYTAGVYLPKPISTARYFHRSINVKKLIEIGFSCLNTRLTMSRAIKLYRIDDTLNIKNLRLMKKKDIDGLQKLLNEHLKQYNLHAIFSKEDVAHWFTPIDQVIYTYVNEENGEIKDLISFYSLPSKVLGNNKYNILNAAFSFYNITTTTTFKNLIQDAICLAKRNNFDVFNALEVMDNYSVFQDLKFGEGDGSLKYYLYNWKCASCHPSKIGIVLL
Protocol Notes: IC50 for competition of protein binding to Kinobeads;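 further: native unpurified kinases from lysate captured on beads bearing immobilized kinase inhibitors, with bead-bound kinases quantified by mass spectrometry across compound doses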
Condition Set: assay detail: Kinobeads competition in P. falciparum blood-stage lysate
Readout Name: IC50

Input O=c1[nH]c2ccc(Cl)cc2c(NC2CN3CCC2CC3)c1-c1nc2ccccc2[nH]1 (stereo unspecified) . Output IC50: > 20 µM

----------
Target Entity: UniProt Q9TY94
Protocol Notes: IC50 for competition of protein binding to Kinobeads
Condition Set: assay detail: Kinobeads competition in P. falciparum blood-stage lysate
Readout Name: IC50

The measured IC50 associated with O=c1[nH]c2ccc(Cl)cc2c(NC2CN3CCC2CC3)c1-c1nc2ccccc2[nH]1 (stereo unspecified) reads > 20 µM

----------
Target Entity: UniProt C0H571
Sequence (C0H571 whole entry): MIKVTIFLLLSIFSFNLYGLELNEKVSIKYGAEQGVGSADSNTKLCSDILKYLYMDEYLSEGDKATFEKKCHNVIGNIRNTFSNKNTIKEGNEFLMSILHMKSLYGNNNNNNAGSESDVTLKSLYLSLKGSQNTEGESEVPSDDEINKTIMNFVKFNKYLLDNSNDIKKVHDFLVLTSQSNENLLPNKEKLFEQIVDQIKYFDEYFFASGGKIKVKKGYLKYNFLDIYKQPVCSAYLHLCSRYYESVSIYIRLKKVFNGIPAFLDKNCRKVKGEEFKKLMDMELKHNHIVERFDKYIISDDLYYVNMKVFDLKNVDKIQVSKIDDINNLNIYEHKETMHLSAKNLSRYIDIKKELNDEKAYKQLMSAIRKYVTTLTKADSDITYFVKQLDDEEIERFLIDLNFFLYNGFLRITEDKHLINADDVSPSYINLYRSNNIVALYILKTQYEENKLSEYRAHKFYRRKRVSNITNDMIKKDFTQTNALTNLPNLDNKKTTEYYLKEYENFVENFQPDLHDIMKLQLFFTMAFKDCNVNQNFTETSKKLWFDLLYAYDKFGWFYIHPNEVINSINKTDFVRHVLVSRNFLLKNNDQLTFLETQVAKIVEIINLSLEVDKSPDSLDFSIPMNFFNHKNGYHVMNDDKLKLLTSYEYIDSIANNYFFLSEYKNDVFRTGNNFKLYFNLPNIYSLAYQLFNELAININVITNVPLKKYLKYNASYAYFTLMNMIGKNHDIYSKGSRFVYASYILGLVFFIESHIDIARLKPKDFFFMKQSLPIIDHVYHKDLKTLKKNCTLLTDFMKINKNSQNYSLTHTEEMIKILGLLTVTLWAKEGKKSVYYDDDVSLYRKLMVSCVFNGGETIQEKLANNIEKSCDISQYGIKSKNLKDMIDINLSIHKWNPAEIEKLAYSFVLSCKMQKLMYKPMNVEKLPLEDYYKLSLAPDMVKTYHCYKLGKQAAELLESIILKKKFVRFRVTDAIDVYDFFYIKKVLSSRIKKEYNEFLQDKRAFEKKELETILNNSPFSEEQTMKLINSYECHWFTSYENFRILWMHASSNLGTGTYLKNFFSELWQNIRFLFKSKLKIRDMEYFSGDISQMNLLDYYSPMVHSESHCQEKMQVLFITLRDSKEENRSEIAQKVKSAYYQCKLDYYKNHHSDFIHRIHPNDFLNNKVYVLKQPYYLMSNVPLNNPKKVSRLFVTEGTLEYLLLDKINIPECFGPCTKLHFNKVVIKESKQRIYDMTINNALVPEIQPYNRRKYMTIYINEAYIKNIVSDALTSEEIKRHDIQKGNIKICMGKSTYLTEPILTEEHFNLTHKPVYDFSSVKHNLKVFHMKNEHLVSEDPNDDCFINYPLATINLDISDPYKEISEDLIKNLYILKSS
Protocol Notes: IC50 for competition of protein binding to Kinobeads
Condition Set: assay detail: Kinobeads competition in P. falciparum blood-stage lysate
pIC50: −log10 of the molar value.
Readout Name: pIC50

Record summary for O=c1[nH]c2ccc(Cl)cc2c(NC2CN3CCC2CC3)c1-c1nc2ccccc2[nH]1 (stereo unspecified) : reported pIC50 = < 4.70

----------
Target Entity: UniProt Q8I0V2
Protocol Notes: IC50 for competition of protein binding to Kinobeads
Condition Set: assay detail: Kinobeads competition in P. falciparum blood-stage lysate
Readout Name: IC50

Case O=c1[nH]c2ccc(Cl)cc2c(NC2CN3CCC2CC3)c1-c1nc2ccccc2[nH]1 (stereo unspecified) , UniProt Q8I0V2, IC50 recorded as > 20 µM

----------
Target Entity: UniProt Q8I3N3
Protocol Notes: IC50 for competition of protein binding to Kinobeads
Condition Set: assay detail: Kinobeads competition in P. falciparum blood-stage lysate
Readout Name: IC50

Considering O=c1[nH]c2ccc(Cl)cc2c(NC2CN3CCC2CC3)c1-c1nc2ccccc2[nH]1 (stereo unspecified) , its IC50 with UniProt Q8I3N3 was recorded as > 20 µM

----------
Target Entity: UniProt Q8IDF9
Protocol Notes: IC50 for competition of protein binding to Kinobeads
Condition Set: assay detail: Kinobeads competition in P. falciparum blood-stage lysate
Readout Name: IC50

Reported IC50 (UniProt Q8IDF9) for entry O=c1[nH]c2ccc(Cl)cc2c(NC2CN3CCC2CC3)c1-c1nc2ccccc2[nH]1 (stereo unspecified) is > 20 µM

----------
Target Entity: UniProt C0H4R8
Protocol Notes: IC50 for competition of protein binding to Kinobeads
Condition Set: assay detail: Kinobeads competition in P. falciparum blood-stage lysate
Readout Name: IC50 (µM)
Answers are plain numbers, in µM.

Measured on UniProt C0H4R8, O=c1[nH]c2ccc(Cl)cc2c(NC2CN3CCC2CC3)c1-c1nc2ccccc2[nH]1 (stereo unspecified) [CHIR-124] has a documented IC50 of 5.36

----------
Target Entity: UniProt Q8IKV6
Protocol Notes: IC50 for competition of protein binding to Kinobeads
Condition Set: assay detail: Kinobeads competition in P. falciparum blood-stage lysate
Readout Name: IC50

Just so you know, measured IC50 for O=c1[nH]c2ccc(Cl)cc2c(NC2CN3CCC2CC3)c1-c1nc2ccccc2[nH]1 (stereo unspecified) came out at > 20 µM

----------
Target Entity: UniProt Q8IDN4
Sequence (Q8IDN4 whole entry): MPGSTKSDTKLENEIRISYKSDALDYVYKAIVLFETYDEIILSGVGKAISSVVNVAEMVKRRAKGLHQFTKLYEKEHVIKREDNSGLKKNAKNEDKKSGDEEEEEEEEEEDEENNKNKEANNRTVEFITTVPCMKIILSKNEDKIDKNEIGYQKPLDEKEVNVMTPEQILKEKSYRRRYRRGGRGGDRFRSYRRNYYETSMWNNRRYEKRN
Protocol Notes: IC50 for competition of protein binding to Kinobeads
Condition Set: assay detail: Kinobeads competition in P. falciparum blood-stage lysate
pIC50: −log10 of the molar value.
Readout Name: pIC50

Sure, the documented pIC50 for O=c1[nH]c2ccc(Cl)cc2c(NC2CN3CCC2CC3)c1-c1nc2ccccc2[nH]1 (stereo unspecified) is < 4.70

----------
Target Entity: UniProt Q8IAU3
Protocol Notes: IC50 for competition of protein binding to Kinobeads
Condition Set: assay detail: Kinobeads competition in P. falciparum blood-stage lysate
Readout Name: IC50

Lookup result for O=c1[nH]c2ccc(Cl)cc2c(NC2CN3CCC2CC3)c1-c1nc2ccccc2[nH]1 (stereo unspecified) [CHIR-124] ; measured IC50: > 20 µM

----------
Target Entity: UniProt Q8IJZ3
Protocol Notes: IC50 for competition of protein binding to Kinobeads
Condition Set: assay detail: Kinobeads competition in P. falciparum blood-stage lysate
pIC50: −log10 of the molar value.
Readout Name: pIC50

Sure, the documented pIC50 for O=c1[nH]c2ccc(Cl)cc2c(NC2CN3CCC2CC3)c1-c1nc2ccccc2[nH]1 (stereo unspecified) is < 4.70

----------
Target Entity: UniProt Q8IL41
Protocol Notes: IC50 for competition of protein binding to Kinobeads
Condition Set: assay detail: Kinobeads competition in P. falciparum blood-stage lysate
Readout Name: IC50

# IC50 (molecule: O=c1[nH]c2ccc(Cl)cc2c(NC2CN3CCC2CC3)c1-c1nc2ccccc2[nH]1 (stereo unspecified) ) is > 20 µM

----------
Target Entity: UniProt Q76NM8
Protocol Notes: IC50 for competition of protein binding to Kinobeads
Condition Set: assay detail: Kinobeads competition in P. falciparum blood-stage lysate
Readout Name: IC50

Simply: O=c1[nH]c2ccc(Cl)cc2c(NC2CN3CCC2CC3)c1-c1nc2ccccc2[nH]1 (stereo unspecified) , UniProt Q76NM8, IC50 = > 20 µM

----------
Target Entity: UniProt C0H4V6
Sequence (whole entry): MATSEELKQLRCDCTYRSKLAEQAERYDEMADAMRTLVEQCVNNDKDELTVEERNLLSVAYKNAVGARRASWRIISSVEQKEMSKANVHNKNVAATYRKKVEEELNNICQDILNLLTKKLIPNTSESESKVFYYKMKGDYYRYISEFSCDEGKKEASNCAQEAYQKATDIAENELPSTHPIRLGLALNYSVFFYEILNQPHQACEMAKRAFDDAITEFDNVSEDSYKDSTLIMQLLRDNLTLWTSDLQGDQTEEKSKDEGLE
Protocol Notes: IC50 for competition of protein binding to Kinobeads
Condition Set: assay detail: Kinobeads competition in P. falciparum blood-stage lysate
pIC50: −log10 of the molar value.
Readout Name: pIC50

# molecule O=c1[nH]c2ccc(Cl)cc2c(NC2CN3CCC2CC3)c1-c1nc2ccccc2[nH]1 (stereo unspecified) ; its pIC50 = < 4.70

----------
Target Entity: UniProt Q8IID2
Protocol Notes: IC50 for competition of protein binding to Kinobeads
Condition Set: assay detail: Kinobeads competition in P. falciparum blood-stage lysate
Readout Name: IC50

// O=c1[nH]c2ccc(Cl)cc2c(NC2CN3CCC2CC3)c1-c1nc2ccccc2[nH]1 (stereo unspecified) : IC50 value = > 20 µM

----------
Target Entity: UniProt Q6ZMA7
Sequence (Q6ZMA7 whole entry): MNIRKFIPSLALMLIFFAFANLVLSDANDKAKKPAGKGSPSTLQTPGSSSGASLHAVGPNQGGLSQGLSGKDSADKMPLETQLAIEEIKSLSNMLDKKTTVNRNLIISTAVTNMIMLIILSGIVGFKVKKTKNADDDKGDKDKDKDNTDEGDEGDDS
Protocol Notes: IC50 for competition of protein binding to Kinobeads
Condition Set: assay detail: Kinobeads competition in P. falciparum blood-stage lysate
Readout Name: IC50

O=c1[nH]c2ccc(Cl)cc2c(NC2CN3CCC2CC3)c1-c1nc2ccccc2[nH]1 (stereo unspecified) [CHIR-124] yielded IC50 of > 20 µM

----------
Target Entity: UniProt O96271
Protocol Notes: IC50 for competition of protein binding to Kinobeads
Condition Set: assay detail: Kinobeads competition in P. falciparum blood-stage lysate
Readout Name: IC50

Item: O=c1[nH]c2ccc(Cl)cc2c(NC2CN3CCC2CC3)c1-c1nc2ccccc2[nH]1 (stereo unspecified) [CHIR-124] | IC50: > 20 µM

----------
Target Entity: UniProt Q8I512
Protocol Notes: IC50 for competition of protein binding to Kinobeads
Condition Set: assay detail: Kinobeads competition in P. falciparum blood-stage lysate
pIC50: −log10 of the molar value.
Readout Name: pIC50

Reported pIC50 (UniProt Q8I512) for entry O=c1[nH]c2ccc(Cl)cc2c(NC2CN3CCC2CC3)c1-c1nc2ccccc2[nH]1 (stereo unspecified) is < 4.70

----------
Target Entity: UniProt O97250
Protocol Notes: IC50 for competition of protein binding to Kinobeads
Condition Set: assay detail: Kinobeads competition in P. falciparum blood-stage lysate
Readout Name: IC50

# IC50 (molecule: O=c1[nH]c2ccc(Cl)cc2c(NC2CN3CCC2CC3)c1-c1nc2ccccc2[nH]1 (stereo unspecified) ) is > 20 µM

----------
Target Entity: UniProt Q8IE84
Protocol Notes: IC50 for competition of protein binding to Kinobeads
Condition Set: assay detail: Kinobeads competition in P. falciparum blood-stage lysate
Readout Name: IC50

The measured IC50 associated with O=c1[nH]c2ccc(Cl)cc2c(NC2CN3CCC2CC3)c1-c1nc2ccccc2[nH]1 (stereo unspecified) reads > 20 µM

----------
Target Entity: UniProt Q8I534
Protocol Notes: IC50 for competition of protein binding to Kinobeads
Condition Set: assay detail: Kinobeads competition in P. falciparum blood-stage lysate
pIC50: −log10 of the molar value.
Readout Name: pIC50

GET /value?item= O=c1[nH]c2ccc(Cl)cc2c(NC2CN3CCC2CC3)c1-c1nc2ccccc2[nH]1 (stereo unspecified) &field=pIC50 returns < 4.70

----------
Target Entity: Q8IEK1 (UniProt O96935)
Sequence (O96935 whole entry, one chain of several): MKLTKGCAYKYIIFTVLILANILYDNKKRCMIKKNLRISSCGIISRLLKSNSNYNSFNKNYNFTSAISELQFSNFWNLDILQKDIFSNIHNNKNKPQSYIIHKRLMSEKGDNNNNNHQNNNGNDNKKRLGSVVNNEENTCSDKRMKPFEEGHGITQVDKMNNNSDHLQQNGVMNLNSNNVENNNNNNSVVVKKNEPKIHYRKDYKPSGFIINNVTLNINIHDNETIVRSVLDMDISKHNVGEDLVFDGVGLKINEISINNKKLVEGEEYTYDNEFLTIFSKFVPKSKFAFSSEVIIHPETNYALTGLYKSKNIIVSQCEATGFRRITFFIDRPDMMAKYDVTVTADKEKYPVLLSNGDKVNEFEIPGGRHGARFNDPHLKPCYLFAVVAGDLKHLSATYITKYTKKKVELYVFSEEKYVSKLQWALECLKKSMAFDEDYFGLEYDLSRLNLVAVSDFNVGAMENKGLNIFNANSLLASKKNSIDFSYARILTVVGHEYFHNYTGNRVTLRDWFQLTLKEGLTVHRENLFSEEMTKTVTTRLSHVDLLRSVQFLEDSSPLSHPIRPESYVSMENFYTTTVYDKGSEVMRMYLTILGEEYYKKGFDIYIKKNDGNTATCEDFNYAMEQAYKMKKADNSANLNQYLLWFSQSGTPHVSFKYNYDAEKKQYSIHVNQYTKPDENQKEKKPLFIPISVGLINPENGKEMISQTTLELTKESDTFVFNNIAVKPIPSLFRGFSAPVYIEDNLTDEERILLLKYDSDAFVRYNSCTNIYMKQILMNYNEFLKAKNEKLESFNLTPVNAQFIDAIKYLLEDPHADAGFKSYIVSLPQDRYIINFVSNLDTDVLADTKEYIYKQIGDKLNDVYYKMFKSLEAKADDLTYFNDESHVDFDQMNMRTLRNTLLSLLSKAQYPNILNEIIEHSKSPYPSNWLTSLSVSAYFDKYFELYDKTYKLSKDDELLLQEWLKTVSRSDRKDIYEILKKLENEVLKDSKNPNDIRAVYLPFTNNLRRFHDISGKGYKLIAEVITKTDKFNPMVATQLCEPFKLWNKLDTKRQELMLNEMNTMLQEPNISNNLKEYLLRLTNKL
Protocol Notes: IC50 for competition of protein binding to Kinobeads
Condition Set: assay detail: Kinobeads competition in P. falciparum blood-stage lysate
Readout Name: IC50

Kindly note the recorded IC50 for O=c1[nH]c2ccc(Cl)cc2c(NC2CN3CCC2CC3)c1-c1nc2ccccc2[nH]1 (stereo unspecified) , which is > 20 µM
